System: K562
method: Cell cycle arrest in human K562 cells assessed as accumulation at sub-G1 phase at IC100 concentration using propidium iodide staining after 24 hrs by flow cytometric analysis
The label 1 is reserved for Activity strictly under 8%; 0 covers values equal to or above it.

Strictly below 8% in Activity? COc1cc(C(=O)c2cc3c(OC)cccc3s2)cc(OC)c1OC
0

Strictly below 8% in Activity? COc1cc(C(=O)c2sc3cc(F)ccc3c2C)cc(OC)c1OC
0

Strictly below 8% in Activity? COc1cc(C(=O)c2sc3ccccc3c2C)cc(OC)c1OC
1

Strictly below 8% in Activity? COc1cc(C(=O)c2sc3c(OC)cccc3c2C)cc(OC)c1OC
0

Strictly below 8% in Activity? CCOc1ccc2c(C)c(C(=O)c3cc(OC)c(OC)c(OC)c3)sc2c1
0

Strictly below 8% in Activity? COc1cc(C(=O)c2cc3cccc(OC)c3s2)cc(OC)c1OC
0

###

Organism: Bos taurus
method: Displacement of [3H]colchicine from bovine brain tubulin at 1 uM
Would you kindly list inhibition for each of these compounds?
Only the number, expressed in %, is required.

Form field: reported inhibition of COc1cc(C(=O)c2sc3c(OC)cccc3c2N)cc(OC)c1OC
39

Form field: reported inhibition of COc1cc(C(=O)c2sc3ccccc3c2C)cc(OC)c1OC
51

Form field: reported inhibition of COc1cc(C(=O)c2sc3cc(F)ccc3c2C)cc(OC)c1OC
48

Form field: reported inhibition of COc1cc(C(=O)c2cc3cccc(OC)c3s2)cc(OC)c1OC
60

Form field: reported inhibition of COc1cc(C(=O)c2cc3c(OC)cccc3s2)cc(OC)c1OC
49

Form field: reported inhibition of COc1cc(C(=O)c2sc3c(OC)cccc3c2C)cc(OC)c1OC
54

Form field: reported inhibition of COc1ccc2c(N)c(C(=O)c3cc(OC)c(OC)c(OC)c3)sc2c1
60

Form field: reported inhibition of COc1cc(C(=O)c2sc3cccc(OC)c3c2C)cc(OC)c1OC
85

Form field: reported inhibition of COc1ccc2c(C)c(C(=O)c3cc(OC)c(OC)c(OC)c3)sc2c1
66

###

System: K562
method: Cell cycle arrest in human K562 cells assessed as accumulation at G0/G1 phase at IC100 concentration using propidium iodide staining after 24 hrs by flow cytometric analysis
Would you kindly list Activity for each of these molecules?
Only the number, expressed in %, is required.

Query Activity on K562 for COc1cc(C(=O)c2cc3cccc(OC)c3s2)cc(OC)c1OC
14.8

Query Activity on K562 for COc1cc(C(=O)c2cc3c(OC)cccc3s2)cc(OC)c1OC
2.13

Query Activity on K562 for CCOc1ccc2c(C)c(C(=O)c3cc(OC)c(OC)c(OC)c3)sc2c1
10.8

Query Activity on K562 for COc1cc(C(=O)c2sc3ccccc3c2C)cc(OC)c1OC
3.72

Query Activity on K562 for COc1cc(C(=O)c2sc3cccc(OC)c3c2C)cc(OC)c1OC
3.74

Query Activity on K562 for COc1ccc2c(C)c(C(=O)c3cc(OC)c(OC)c(OC)c3)sc2c1
11.7

Query Activity on K562 for COc1cc(C(=O)c2sc3c(OC)cccc3c2C)cc(OC)c1OC
4.19

Query Activity on K562 for COc1cc(C(=O)c2sc3cc(F)ccc3c2C)cc(OC)c1OC
6.16
